test system: SN12C; assay: NCI tumour cell line growth inhibition, 48 h
Activity calls are given as the source filed them. Rule as the data show it: active = GI50 up to about 1.1 µM and inactive = higher.
Possible outcomes: TRUE = active, FALSE = inactive

Compound: COC1=CC(=O)C(O)=C(CC2(C)C(C)CCC3(C)C2CCCC3(C)C)C1=O (centres undefined)
Cat: FALSE
//
Compound: [O-][S+]1CSSC1
Cat: FALSE
//
Compound: CC1=CC(=O)/C(=C(/C)NCCN(CCN/C(C)=C2\C(=O)C=C(C)OC2=O)CCN/C(C)=C2\C(=O)C=C(C)OC2=O)C(=O)O1
Cat: FALSE
//
Compound: CCCCCCCCCCCCCCCCCC(=O)Nc1ccn(C2OC(CO)C(O)C2O)c(=O)n1 (centres undefined)
Cat: FALSE
//
Compound: Cn1ccnc1CCc1ccc(Cl)c(Cl)c1
Cat: FALSE
//
Compound: NCCCCN(CCCN)C(=O)OCc1ccccc1
Cat: FALSE
//
Compound: CNC(=S)N(C1CCCCC1)C1CCCCC1
Cat: FALSE
//
Compound: Cc1ccc(Nc2nc(C)c(C(=O)CC(=O)C(=O)Nc3c(C)cccc3C(C)(C)C)s2)cc1
Cat: FALSE
//
Compound: CC1(C)OCC(COC(=O)NCn2cc(-c3ccccc3)nn2)O1 (centres undefined)
Cat: FALSE
//
Compound: COC(=O)c1c(O)ccc2c1c1c(n2Cc2ccccn2)C(=O)c2ccccc2C1
Cat: FALSE
//
Compound: C=C(COC(C)=O)CC(OC(C)=O)c1ccccc1 (centres undefined)
Cat: FALSE
//
Compound: O=C(O)Cc1ccc2c(c1)/C(=C1/Nc3ccccc3C1=O)C(=O)N2
Cat: FALSE
//
Compound: Cc1ccc(S(=O)(=O)n2c3c(c4ccccc42)CCN2C(=O)C(S(=O)(=O)c4ccccc4)=CCC32)cc1 (centres undefined)
Cat: TRUE
//
Compound: CC(NCCN(C)C)C1CCC2C3CCc4cc(O)ccc4C3CCC12C (centres undefined)
Cat: FALSE
//
Compound: COc1ccc(NC(=O)CC(=O)n2nc(-c3ccccc3)c(/N=N/c3ccccc3C)c2-c2ccccc2)cc1
Cat: FALSE
//
Compound: CC/C=N\N1C(N)=C(C#N)C(C#N)(C#N)C1CC (centres undefined)
Cat: FALSE
//
Compound: CCOC(=O)/C(=C/c1cc(OC)ccc1OC)CC(=O)O
Cat: FALSE
//
Compound: CN(C)c1ccc2c(=O)c3ccccc3oc2n1
Cat: FALSE
//
Compound: COc1ccc(/C=C/C(=O)CCN2CCN(CCC(=O)/C=C/c3ccc(OC)cc3)CC2)cc1
Cat: FALSE
//
Compound: CCCCNC(=S)N/C=C1\C(=O)Nc2ccccc2C1=O
Cat: FALSE
//
Compound: CC(=O)O[C@H]1C(=O)[C@@]2(C)[C@H]([C@H](OC(=O)c3ccccc3)[C@]3(O)C[C@H](OC(=O)[C@H](O)[C@@H](NC(=O)OC(C)(C)C)c4ccco4)C(C)=C1C3(C)C)[C@]1(OC(C)=O)CO[C@@H]1C[C@@H]2O
Cat: TRUE
//
Compound: C[N+](C)(C)CC1Cc2ccccc2C1=O (centres undefined)
Cat: FALSE
//
Compound: C#CCOCC12C=CC(O1)C1C(=O)OCC12 (centres undefined)
Cat: FALSE
//
Compound: CC1(C)OC2C(=O)C=C(COCc3ccccc3)C2O1 (centres undefined)
Cat: FALSE
//
Compound: Cc1cc(C)c(C)c(-n2[nH]c(=O)n(C)c2=O)c1C
Cat: FALSE
//
Compound: COc1ccc(/C=C2\CCC(CNc3ccc(OC)cc3)C2=O)cc1 (centres undefined)
Cat: FALSE
//
Compound: CSc1nc(NC2OC(COC(C)=O)C(OC(C)=O)C(OC(C)=O)C2OC(C)=O)c(/N=C/C=N/c2c(NC3OC(COC(C)=O)C(OC(C)=O)C(OC(C)=O)C3OC(C)=O)nc(SC)[nH]c2=O)c(=O)[nH]1 (centres undefined)
Cat: FALSE
//
Compound: O=C(O)CNc1cc(-c2ccccc2)nc(NCC(=O)O)n1
Cat: FALSE
//
Compound: Clc1ccc(CNc2nc(Cl)c3nc[nH]c3n2)cc1Cl
Cat: FALSE
//
Compound: CN(C)c1ccc(/C=C2\CNC/C(=C\c3ccc(N(C)C)cc3)C2=O)cc1
Cat: FALSE
//
Compound: CC1(c2ccccc2Cl)C(C#N)C(=O)NC(=O)C1C#N (centres undefined)
Cat: FALSE
//
Compound: Cc1nc([N+](=O)[O-])cn1-c1nc2ccccn2c1[N+](=O)[O-]
Cat: FALSE
//
Compound: O=C(COC(=O)c1cccc2c(=O)c3ccccc3[nH]c12)Nc1ccc(S(=O)(=O)Nc2ncccn2)cc1
Cat: FALSE
//
Compound: O=S(=O)(O)C(O)/C=C/c1ccccc1 (centres undefined)
Cat: FALSE
//
Compound: c1ccc2c(c1)SP1Sc3ccccc3P21 (centres undefined)
Cat: FALSE
//
Compound: CC1(C)CC2(C)OC(=N)C1(C#N)C2(C#N)C#N (centres undefined)
Cat: FALSE
//
Compound: Cc1nn(C2OC(CO)C(O)C(F)C2O)c(=O)[nH]c1=O (centres undefined)
Cat: FALSE
//
Compound: O=C(O)CN1CCNCCNCC1
Cat: FALSE
//
Compound: O=c1c2c(c1=O)C1(SCCCS1)c1cc(Cl)ccc1O2
Cat: FALSE
//
Compound: C#CCSc1nc(-c2ccco2)n[nH]1
Cat: FALSE
//
Compound: CN1C(=O)C(CC(=O)O)NC1=S (centres undefined)
Cat: FALSE
//
Compound: O=C1C=C(Br)c2c(Br)sc(Br)c21
Cat: FALSE
//
Compound: Cc1c2c(n3c(nc4ccccc43)c1C#N)N(c1ccc(Cl)cc1)CC2
Cat: FALSE
//
Compound: COc1c(O)cc2c(c1O)C1O[C@H](CO)C(O)[C@H](O)[C@H]1OC2=O (some centres undefined)
Cat: FALSE
